src = paper PMC12266748

system: Human mesenchymal stem cells (MSCs); experiment: MTT viability of Doxorubicin-induced senescent and non-senescent MSCs; type: cell-based; conditions: Homo sapiens, Mesenchymal stem cells, MTT, read-out: EC50 proliferating cells
pEC50: −log10 of the molar value.

>  <Compound>
Cc1ccccc1-n1c(=O)n(Cc2ccccc2)c(=O)c2[nH]cnc21 [Compound K5]

>  <pEC50>
< 3.30

$$$$

---

assay: Mouse plasma exposure after oral and intravenous administration, brain and kidney distribution; format: in vivo, CD1 mouse; details: plasma; oral 30 mg/kg vs IV 5 mg/kg, CD1 mouse

>  <Smiles Representation>
Cc1ccccc1-n1c(=O)n(Cc2ccccc2)c(=O)c2[nH]cnc21

>  <Quantity Unit>
%

>  <bioavailability>
54

$$$$

---

test system: IMR90 cells; experiment: Dose-response curves on proliferating and replicative senescent IMR90 (Trypan blue cell count); type: cell-based; details: proliferating IMR90 (PD14), 48 h

>  <Compound>
CO[C@H]1/C=C\C=C(/C)C(=O)NC2=CC(=O)C(NCCN(C)C)=C(C[C@@H](C)C[C@H](OC)[C@H](O)[C@@H](C)/C=C(\C)[C@@H]1OC(N)=O)C2=O [Compound 17-DMAG]

>  <EC50 [µM]>
0.785

$$$$

---

system: Mouse ear fibroblasts (MearF); experiment: MTT viability of Doxorubicin-induced senescent and non-senescent murine ear fibroblasts; format: cell-based, C57BL/6J mice; settings: Mus musculus, Fibroblast, DNA damage (Doxorubicin), MTT, read-out: EC50 senescent cells

>  <Smiles Representation>
Cc1ccccc1-n1c(=O)n(Cc2ccccc2)c(=O)c2[nH]cnc21

>  <EC50>
> 500 µM

$$$$

---

# pEC50 per entry
System: IMR90 cells
Experiment: Dose-response curves on proliferating and replicative senescent IMR90 (Trypan blue cell count)
Assay type: cell-based
Settings: Homo sapiens, IMR-90; IMR90; read-out: EC50 proliferating cells
Protocol: IMR90 and WI38 lung fibroblasts were purchased from ECACC‐Merck. Human bone marrow (BM)‐derived mesenchymal stromal cells (MSCs) were purchased from Lonza. […] The EC50 was calculated using GraphPad Prism 10 software. […] Cell culture and treatment. […] Cells were counted manually, in triplicate, using Trypan blue reagent (Euroclone) and disposable Bürker chambers. […] Cells were counted using a Trypan blue reagent and EVAplus cell counter. […]
pEC50: −log10 of the molar value.

>  <Smiles Representation>
Cc1ccccc1-n1c(=O)n(Cc2ccccc2)c(=O)c2[nH]cnc21

>  <Sign Qualifier>
<

>  <pEC50>
3.30

$$$$
>  <Smiles Representation>
CC(C)c1cc(-c2n[nH]c(=O)n2-c2ccc3c(ccn3C)c2)c(O)cc1O

>  <Sign Qualifier>
=

>  <pEC50>
6.00

$$$$

---

system: IMR90 cells; experiment: Dose-response curves on proliferating and replicative senescent IMR90 (Trypan blue cell count); type: cell-based; details: IMR90, Replicative/passages; read-out: EC50 senescent cells
pEC50: −log10 of the molar value.

>  <Smiles Representation>
CO[C@H]1/C=C\C=C(/C)C(=O)NC2=CC(=O)C(NCCN(C)C)=C(C[C@@H](C)C[C@H](OC)[C@H](O)[C@@H](C)/C=C(\C)[C@@H]1OC(N)=O)C2=O

>  <pEC50>
7.07

$$$$

---

assay: Mouse plasma exposure after oral and intravenous administration, brain and kidney distribution; format: in vivo, CD1 mouse; settings: CD1, mouse, kidney; IV 5 mg/kg, relative to plasma; read-out: distribution in the kidney
Measured Quantity: Kp

>  <Smiles Representation>
Cc1ccccc1-n1c(=O)n(Cc2ccccc2)c(=O)c2[nH]cnc21

>  <Measured Quantity>
Kp

>  <Readout Value>
1.31

$$$$
